I'd be grateful if you could share measured Kd for these entries.
- tested on: Influenza A virus M2 proton channel (A/TW/4845/1999 H1N1)
- experiment: M2 proton channel binding, NMR based, influenza A virus H1N1 strain (AID 1549)
- setup conditions: NMR binding screen, M2 protein
Activity calls are given as the source filed them. The rule behind the calls is not given here.

query: # Kd lookup, item `O=C1NC(=S)N/C1=C/c1ccsc1`
result: > 4 mM (inactive)

query: # Kd lookup, item `CCN1C(=O)c2c(C)nc3ccccc3c2C1=O`
result: > 4 mM (inactive)

query: # Kd lookup, item `O=C1c2ccccc2C(=O)c2c(O)c(O)cc(O)c21`
result: > 4 mM (inactive)

query: # Kd lookup, item C=CC(C1=CC(=O)C=CC1=O)c1ccccc1 (stereo unspecified)
result: > 4 mM (inactive)

query: # Kd lookup, item `c1ccc2c(c1)ncn2CCn1cnc2ccccc21`
result: > 4 mM (inactive)

query: # Kd lookup, item CC(=O)O[C@@H]1CC2C(C)(CC[C@H](O)C2(C)C)C2CC[C@]3(C)C(=CC(=O)O[C@H]3c3ccoc3)C21C (stereo partly specified)
result: > 4 mM (inactive)
